MEASUREMENT_DESCRIPTION: LNP particle size and PDI by dynamic light scattering
Format: physicochemical
ASSAY_SETUP: LNP: ionizable lipid/DSPC/Chol/DMG‐PEG2000 50:10:38.5:1.5, N/P 6; DLS
QUANTITY_KIND: PDI

Answered cases to consult:
[
  {
    "COMPOUND": "CCCCCCCCC(CCCCCCCC)OC(=O)CCCCCCCC1(CCCCCCCC(=O)OC(CCCCCCCC)CCCCCCCC)OCC(CCN(C)C)O1 (centres unmarked) [KEL10]",
    "NUMERIC_VALUE": 0.10
  },
  {
    "COMPOUND": "CCCCCCCCCCCOC(=O)CCCCCC1(CCCCCCCC(=O)OC(CCCCCCCC)CCCCCCCC)OCC(CCN(CC)C(C)C)O1 (centres unmarked) [KEL8]",
    "NUMERIC_VALUE": 0.03
  }
]

(1) CCCCCCCCCCCOC(=O)CCCCCC1(CCCCCCCC(=O)OC(CCCCCCCC)CCCCCCCC)OCC(CCN(C)C)O1 (centres unmarked) [KEL2]
(2) CCCCCCCCCCCNC(=O)CCCCCC1(CCCCCCCC(=O)NC(CCCCCCCC)CCCCCCCC)OCC(CCN(C)C)O1 (centres unmarked) [KEL9]
Which numeric PDI is bigger, that of 1 or that of 2 ? Give the chosen item's label as your response.
2
(2: 0.05, 1: 0.03)

(I) CCCCCCCCCCCOC(=O)CCCCCC1(CCCCCCCC(=O)OC(CCCCCCCC)CCCCCCCC)OCC(CCN(CC)CC)O1 (centres unmarked) [KEL6]
(II) CCCCCCCCCCCOC(=O)CCCCCC1(CCCCCC(=O)OCCCCCCCCCCC)OCC(CCN(C)C)O1 (centres unmarked) [KEL11]
Response body: label of entry with the larger PDI; valid values I , II . Write down the label attached to your selection.
II
(II: 0.34, I: 0.06)

(I) CCCCCCCCCCCOC(=O)CCCCCC1(CCCCCCCC(=O)OC(CCCCCCCC)CCCCCCCC)OCC(CCN(C)CC)O1 (centres unmarked) [KEL5]
(II) CCCCCCCCCCCOC(=O)CCCCCC1(CCCCCCCC(=O)OC(CCCCCCCC)CCCCCCCC)OCC(CN(C)C)O1 (centres unmarked) [KEL1]
(III) CCCCCCCCCCC(=O)OCCCCCCC1(CCCCCCCC(=O)OC(CCCCCCCC)CCCCCCCC)OCC(CCN(C)C)O1 (centres unmarked) [KEL12]
Could you please order the items by PDI, going from the lowest number to the highest? The reply should contain the labels ordered as requested.
III, I, II
(III: 0.04, I: 0.07, II: 0.12)

* * *

MEASUREMENT_DESCRIPTION: LNP apparent pKa, TNS dye‐binding assay
Type: physicochemical
ASSAY_SETUP: apparent pKa of the LNP
QUANTITY_KIND: pKa

[
  {
    "COMPOUND": "CCCCCCCCCCCOC(=O)CCCCCC1(CCCCCCCC(=O)OC(CCCCCCCC)CCCCCCCC)OCC(CCN(CC)C(C)C)O1 (centres unmarked) [KEL8]",
    "pKa": 6.17
  },
  {
    "COMPOUND": "CCCCCCCCCCC(=O)OCCCCCCC1(CCCCCCCCOC(=O)C(CCCCCCCC)CCCCCCCC)OCC(CCN(C)C)O1 (centres unmarked) [KEL13]",
    "pKa": 6.44
  },
  {
    "COMPOUND": "CCCCCCCCCCCOC(=O)CCCCCC1(CCCCCCCC(=O)OC(CCCCCCCC)CCCCCCCC)OCC(CCCCN(C)C)O1 (centres unmarked) [KEL4]",
    "pKa": 7.40
  },
  {
    "COMPOUND": "CCCCCCCCCCCOC(=O)CCCCCC1(CCCCCCCC(=O)OC(CCCCCCCC)CCCCCCCC)OCC(CCN(CC)CC)O1 (centres unmarked) [KEL6]",
    "pKa": 6.89
  },
  {
    "COMPOUND": "CCCCCCCCCCCOC(=O)CCCCCC1(CCCCCCCC(=O)OC(CCCCCCCC)CCCCCCCC)OCC(CCN(C)CC)O1 (centres unmarked) [KEL5]",
    "pKa": 6.86
  },
  {
    "COMPOUND": "CCCCCCCCCCCOC(=O)CCCCCC1(CCCCCCCC(=O)OC(CCCCCCCC)CCCCCCCC)OCC(CCN(C)CCC)O1 (centres unmarked) [KEL7]",
    "pKa": 5.91
  },
  {
    "COMPOUND": "CCCCCCCCCCCOC(=O)CCCCCC1(CCCCCCCC(=O)OC(CCCCCCCC)CCCCCCCC)OCC(CCCN(C)C)O1 (centres unmarked) [KEL3]",
    "pKa": 6.86
  },
  {
    "COMPOUND": "CCCCCCCCCCC(=O)OCCCCCCC1(CCCCCCCC(=O)OC(CCCCCCCC)CCCCCCCC)OCC(CCN(C)C)O1 (centres unmarked) [KEL12]",
    "pKa": 6.93
  },
  {
    "COMPOUND": "CCCCC/C=C\\C/C=C\\CCCCCCCCC(CCCCCCCC/C=C\\C/C=C\\CCCCC)OC(=O)CCCN(C)C [DLin‐MC3‐DMA, reference compound]",
    "pKa": 6.33
  },
  {
    "COMPOUND": "CCCCCCCCCCCOC(=O)CCCCCC1(CCCCCCCC(=O)OC(CCCCCCCC)CCCCCCCC)OCC(CCN(C)C)O1 (centres unmarked) [KEL2]",
    "pKa": 6.88
  },
  {
    "COMPOUND": "CCCCCCCCCCCOC(=O)CCCCCC1(CCCCCC(=O)OCCCCCCCCCCC)OCC(CCN(C)C)O1 (centres unmarked) [KEL11]",
    "pKa": 6.88
  },
  {
    "COMPOUND": "CCCCCCCCCCCNC(=O)CCCCCC1(CCCCCCCC(=O)NC(CCCCCCCC)CCCCCCCC)OCC(CCN(C)C)O1 (centres unmarked) [KEL9]",
    "pKa": 7.03
  },
  {
    "COMPOUND": "CCCCCCCCCCCOC(=O)CCCCCC1(CCCCCCCC(=O)OC(CCCCCCCC)CCCCCCCC)OCC(CN(C)C)O1 (centres unmarked) [KEL1]",
    "pKa": 5.72
  },
  {
    "COMPOUND": "CCCCCCCCC(CCCCCCCC)OC(=O)CCCCCCCC1(CCCCCCCC(=O)OC(CCCCCCCC)CCCCCCCC)OCC(CCN(C)C)O1 (centres unmarked) [KEL10]",
    "pKa": 6.09
  }
]

* * *

MEASUREMENT_DESCRIPTION: Encapsulation efficiency of LNPs, RiboGreen accessibility assay
Assay type: physicochemical
ASSAY_SETUP: LNP: ionizable lipid/DSPC/Chol/DMG‐PEG2000 50:10:38.5:1.5, N/P 6
Experimental: Particle size and polydispersity index (PDI) were determined by dynamic light scattering (DLS), apparent pKa was assessed using 6‐(p‐toluidino)‐2‐naphthalenesulfonic acid (TNS) dye‐binding assay, while encapsulation efficiency was evaluated by a RiboGreen accessibility assay. The sizes of the LNP formulations were assessed by DLS (Malvern Zetasizer Pro). Quant‐it RiboGreen assay (ThermoFisher Scientific, Cat# R11490) was used to measure the encapsulation efficiency of the LNP formulations. […]
QUANTITY_KIND: Encapsulation efficiency (%)

[
  {
    "MOLECULE": "CCCCCCCCCCCOC(=O)CCCCCC1(CCCCCCCC(=O)OC(CCCCCCCC)CCCCCCCC)OCC(CCCN(C)C)O1 (centres unmarked) [KEL3]",
    "NUMERIC_VALUE": 89.3
  },
  {
    "MOLECULE": "CCCCCCCCCCCOC(=O)CCCCCC1(CCCCCCCC(=O)OC(CCCCCCCC)CCCCCCCC)OCC(CN(C)C)O1 (centres unmarked) [KEL1]",
    "NUMERIC_VALUE": 95.0
  },
  {
    "MOLECULE": "CCCCCCCCCCCOC(=O)CCCCCC1(CCCCCC(=O)OCCCCCCCCCCC)OCC(CCN(C)C)O1 (centres unmarked) [KEL11]",
    "NUMERIC_VALUE": 93.3
  },
  {
    "MOLECULE": "CCCCCCCCCCCOC(=O)CCCCCC1(CCCCCCCC(=O)OC(CCCCCCCC)CCCCCCCC)OCC(CCN(CC)C(C)C)O1 (centres unmarked) [KEL8]",
    "NUMERIC_VALUE": 97.6
  },
  {
    "MOLECULE": "CCCCCCCCCCCNC(=O)CCCCCC1(CCCCCCCC(=O)NC(CCCCCCCC)CCCCCCCC)OCC(CCN(C)C)O1 (centres unmarked) [KEL9]",
    "NUMERIC_VALUE": 98.2
  },
  {
    "MOLECULE": "CCCCCCCCCCC(=O)OCCCCCCC1(CCCCCCCC(=O)OC(CCCCCCCC)CCCCCCCC)OCC(CCN(C)C)O1 (centres unmarked) [KEL12]",
    "NUMERIC_VALUE": 94.9
  },
  {
    "MOLECULE": "CCCCCCCCC(CCCCCCCC)OC(=O)CCCCCCCC1(CCCCCCCC(=O)OC(CCCCCCCC)CCCCCCCC)OCC(CCN(C)C)O1 (centres unmarked) [KEL10]",
    "NUMERIC_VALUE": 96.5
  },
  {
    "MOLECULE": "CCCCCCCCCCCOC(=O)CCCCCC1(CCCCCCCC(=O)OC(CCCCCCCC)CCCCCCCC)OCC(CCN(CC)CC)O1 (centres unmarked) [KEL6]",
    "NUMERIC_VALUE": 97.5
  },
  {
    "MOLECULE": "CCCCCCCCCCCOC(=O)CCCCCC1(CCCCCCCC(=O)OC(CCCCCCCC)CCCCCCCC)OCC(CCN(C)CC)O1 (centres unmarked) [KEL5]",
    "NUMERIC_VALUE": 96.5
  },
  {
    "MOLECULE": "CCCCCCCCCCCOC(=O)CCCCCC1(CCCCCCCC(=O)OC(CCCCCCCC)CCCCCCCC)OCC(CCCCN(C)C)O1 (centres unmarked) [KEL4]",
    "NUMERIC_VALUE": 91.0
  },
  {
    "MOLECULE": "CCCCCCCCCCCOC(=O)CCCCCC1(CCCCCCCC(=O)OC(CCCCCCCC)CCCCCCCC)OCC(CCN(C)C)O1 (centres unmarked) [KEL2]",
    "NUMERIC_VALUE": 92.3
  },
  {
    "MOLECULE": "CCCCCCCCCCC(=O)OCCCCCCC1(CCCCCCCCOC(=O)C(CCCCCCCC)CCCCCCCC)OCC(CCN(C)C)O1 (centres unmarked) [KEL13]",
    "NUMERIC_VALUE": 91.0
  },
  {
    "MOLECULE": "CCCCC/C=C\\C/C=C\\CCCCCCCCC(CCCCCCCC/C=C\\C/C=C\\CCCCC)OC(=O)CCCN(C)C [DLin‐MC3‐DMA, reference compound]",
    "NUMERIC_VALUE": 96.7
  },
  {
    "MOLECULE": "CCCCCCCCCCCOC(=O)CCCCCC1(CCCCCCCC(=O)OC(CCCCCCCC)CCCCCCCC)OCC(CCN(C)CCC)O1 (centres unmarked) [KEL7]",
    "NUMERIC_VALUE": 97.2
  }
]
